Provenance of the data: paper PMC10424176

# TEST_PROTOCOL: physchem
# Assay type: physicochemical
# PROTOCOL_CONDITIONS: XBridge column, 60% MeCN, pH 7.0; read-out: BRlogD
Quick reference for chromatographic logD among some compounds

{"COMPOUND": "Cc1sc2c(c1C)C(c1ccc(Cl)cc1)=N[C@@H](CC(=O)Nc1ccc(OCCOCCOCCOCCNc3cccc4c3C(=O)N(C3CCC(=O)NC3=O)C4=O)cc1)c1nnc(C)n1-2 (some centres unmarked)", "chromatographic logD": 3.49}
{"COMPOUND": "CCC[C@H](NC(=O)[C@@H]1[C@H]2CCC[C@H]2CN1C(=O)[C@@H](NC(=O)[C@@H](NC(=O)c1cnccn1)C1CCCCC1)C(C)(C)C)C(=O)C(=O)NC1CC1", "chromatographic logD": 3.6}
